pIC50: −log10 of the molar value. Structures can show the parent of a compound that is named as a salt.
The reader will find pIC50 measurements below, all made with human LOXL2 (Homo sapiens).
Sequence (Q9Y4K0 26-774): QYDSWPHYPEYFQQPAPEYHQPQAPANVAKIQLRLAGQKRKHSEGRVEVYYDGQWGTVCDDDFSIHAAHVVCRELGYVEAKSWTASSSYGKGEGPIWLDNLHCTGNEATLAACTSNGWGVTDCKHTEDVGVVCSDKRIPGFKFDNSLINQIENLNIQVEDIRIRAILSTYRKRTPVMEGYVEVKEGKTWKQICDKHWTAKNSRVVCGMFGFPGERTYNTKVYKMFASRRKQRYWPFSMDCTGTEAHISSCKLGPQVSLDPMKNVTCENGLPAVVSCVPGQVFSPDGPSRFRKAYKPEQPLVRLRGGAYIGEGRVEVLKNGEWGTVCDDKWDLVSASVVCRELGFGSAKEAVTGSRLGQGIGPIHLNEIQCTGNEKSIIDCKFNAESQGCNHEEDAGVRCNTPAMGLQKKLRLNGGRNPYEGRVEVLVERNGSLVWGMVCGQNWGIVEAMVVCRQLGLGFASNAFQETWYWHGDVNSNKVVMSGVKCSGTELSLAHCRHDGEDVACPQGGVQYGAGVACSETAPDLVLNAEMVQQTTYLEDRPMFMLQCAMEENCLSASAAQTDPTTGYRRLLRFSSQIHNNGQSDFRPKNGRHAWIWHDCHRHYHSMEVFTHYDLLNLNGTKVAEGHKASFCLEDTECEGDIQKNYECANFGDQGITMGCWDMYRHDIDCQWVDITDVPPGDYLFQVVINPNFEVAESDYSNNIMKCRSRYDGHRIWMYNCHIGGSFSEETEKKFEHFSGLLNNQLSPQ

Look over these answered cases.
{"Compound": "NCc1cc(OCc2cccc(C(=O)NCCn3cccn3)c2)ncn1 [Compound 1-39]", "pIC50": "> 7.00"}
{"Compound": "NCc1cc(Oc2cccc(C(=O)N3CCc4cccnc43)c2)ncn1 [Compound 1-51, hydrochloride]", "pIC50": "> 7.00"}
{"Compound": "NCc1cc(Oc2cccc(C(=O)NCCCC(=O)O)c2)ncn1 [Compound 1-8, Hydrochloride]", "pIC50": "6.00 to 7.00"}
{"Compound": "NCc1cc(NCc2cccc(C(=O)Nc3cccc(C(F)(F)F)c3)c2)ncn1 [Compound 1-96]", "pIC50": "> 7.00"}
{"Compound": "NCc1cc(Oc2cccc3c2ccn3Cc2ccccc2)ncn1 [Compound 1-26]", "pIC50": "> 7.00"}
{"Compound": "CC(Oc1cc(CN)ncn1)c1cccc(C(=O)Nc2ccccc2)c1 (racemic) [Compound 1-95]", "pIC50": "6.00 to 7.00"}
{"Compound": "NCc1cc(N2CCN(C(=O)c3ccccc3)CC2)ncn1 [Compound 1-104]", "pIC50": "< 6.00"}
{"Compound": "Cn1cc(-n2ccc3c(Oc4cc(CN)ncn4)cccc32)cn1 [Compound 1-32]", "pIC50": "> 7.00"}

Could you now consider this next compound?
-- ask Any idea what pIC50 was measured for NCc1cc(OCc2cccc(C(=O)N3CCc4ccncc43)c2)ncn1 [Compound 1-93] ?
-- reply > 7.00
